Data provenance is patent US11919887B2.

Target: human Nav 1.8 (Homo sapiens)
Assay: E-VIPR assay detecting and measuring Nav inhibition (HEK cells expressing truncated human Nav 1.8)
Type: cell-based
Conditions: in the Presence of Human Serum in the E-VIPR Assay; read-out: IC50
pIC50: −log10 of the molar value.
Readout Type: pIC50

[[record]]
compound = "COc1c([C@H]2C[C@@](C)(C(F)(F)F)O[C@@H]2C(=O)Nc2ccnc(C(N)=O)c2)ccc(F)c1F (stereo in doubt) [Compound 4]"
result = "< 6.00"

[[record]]
compound = "COc1cc(F)ccc1[C@@H]1C[C@](C)(C(F)(F)F)O[C@H]1C(=O)Nc1ccnc(C(N)=O)c1 (stereo in doubt) [Compound 68]"
result = "7.00 to 8.00"

[[record]]
compound = "C[C@H]1[C@@H](c2ccc(F)c(F)c2OCC2CC(F)(F)C2)[C@H](C(=O)Nc2ccnc(C(N)=O)c2)O[C@@]1(C)C(F)(F)F [Compound 146]"
result = "7.00 to 8.00"

[[record]]
compound = "COc1c([C@@H]2[C@H](C)[C@H](C(F)(F)F)O[C@H]2C(=O)Nc2ccnc(C(N)=O)c2)ccc(F)c1F (relative stereo) [Compound 24]"
result = "< 6.00"

[[record]]
compound = "Cc1cnc(C(N)=O)cc1NC(=O)[C@@H]1O[C@@](C)(C(F)(F)F)[C@@H](C)[C@H]1c1ccc(F)c(F)c1OC(F)F (stereo in doubt) [Compound 150]"
result = "< 6.00"


-- ask Name the recorded pIC50 for COc1c([C@@H]2C[C@H](C(F)(F)F)O[C@H]2C(=O)Nc2ccnc(C(N)=O)c2)ccc(F)c1F (stereo in doubt) [Compound 110] .
-- reply 6.00 to 7.00

----------
This listing pairs compounds with measured pIC50.
Molecular target: human Nav 1.8 (Homo sapiens, UniProt Q9Y5Y9)
Sequence (Q9Y5Y9 whole entry, looked up, the tested form may be a part): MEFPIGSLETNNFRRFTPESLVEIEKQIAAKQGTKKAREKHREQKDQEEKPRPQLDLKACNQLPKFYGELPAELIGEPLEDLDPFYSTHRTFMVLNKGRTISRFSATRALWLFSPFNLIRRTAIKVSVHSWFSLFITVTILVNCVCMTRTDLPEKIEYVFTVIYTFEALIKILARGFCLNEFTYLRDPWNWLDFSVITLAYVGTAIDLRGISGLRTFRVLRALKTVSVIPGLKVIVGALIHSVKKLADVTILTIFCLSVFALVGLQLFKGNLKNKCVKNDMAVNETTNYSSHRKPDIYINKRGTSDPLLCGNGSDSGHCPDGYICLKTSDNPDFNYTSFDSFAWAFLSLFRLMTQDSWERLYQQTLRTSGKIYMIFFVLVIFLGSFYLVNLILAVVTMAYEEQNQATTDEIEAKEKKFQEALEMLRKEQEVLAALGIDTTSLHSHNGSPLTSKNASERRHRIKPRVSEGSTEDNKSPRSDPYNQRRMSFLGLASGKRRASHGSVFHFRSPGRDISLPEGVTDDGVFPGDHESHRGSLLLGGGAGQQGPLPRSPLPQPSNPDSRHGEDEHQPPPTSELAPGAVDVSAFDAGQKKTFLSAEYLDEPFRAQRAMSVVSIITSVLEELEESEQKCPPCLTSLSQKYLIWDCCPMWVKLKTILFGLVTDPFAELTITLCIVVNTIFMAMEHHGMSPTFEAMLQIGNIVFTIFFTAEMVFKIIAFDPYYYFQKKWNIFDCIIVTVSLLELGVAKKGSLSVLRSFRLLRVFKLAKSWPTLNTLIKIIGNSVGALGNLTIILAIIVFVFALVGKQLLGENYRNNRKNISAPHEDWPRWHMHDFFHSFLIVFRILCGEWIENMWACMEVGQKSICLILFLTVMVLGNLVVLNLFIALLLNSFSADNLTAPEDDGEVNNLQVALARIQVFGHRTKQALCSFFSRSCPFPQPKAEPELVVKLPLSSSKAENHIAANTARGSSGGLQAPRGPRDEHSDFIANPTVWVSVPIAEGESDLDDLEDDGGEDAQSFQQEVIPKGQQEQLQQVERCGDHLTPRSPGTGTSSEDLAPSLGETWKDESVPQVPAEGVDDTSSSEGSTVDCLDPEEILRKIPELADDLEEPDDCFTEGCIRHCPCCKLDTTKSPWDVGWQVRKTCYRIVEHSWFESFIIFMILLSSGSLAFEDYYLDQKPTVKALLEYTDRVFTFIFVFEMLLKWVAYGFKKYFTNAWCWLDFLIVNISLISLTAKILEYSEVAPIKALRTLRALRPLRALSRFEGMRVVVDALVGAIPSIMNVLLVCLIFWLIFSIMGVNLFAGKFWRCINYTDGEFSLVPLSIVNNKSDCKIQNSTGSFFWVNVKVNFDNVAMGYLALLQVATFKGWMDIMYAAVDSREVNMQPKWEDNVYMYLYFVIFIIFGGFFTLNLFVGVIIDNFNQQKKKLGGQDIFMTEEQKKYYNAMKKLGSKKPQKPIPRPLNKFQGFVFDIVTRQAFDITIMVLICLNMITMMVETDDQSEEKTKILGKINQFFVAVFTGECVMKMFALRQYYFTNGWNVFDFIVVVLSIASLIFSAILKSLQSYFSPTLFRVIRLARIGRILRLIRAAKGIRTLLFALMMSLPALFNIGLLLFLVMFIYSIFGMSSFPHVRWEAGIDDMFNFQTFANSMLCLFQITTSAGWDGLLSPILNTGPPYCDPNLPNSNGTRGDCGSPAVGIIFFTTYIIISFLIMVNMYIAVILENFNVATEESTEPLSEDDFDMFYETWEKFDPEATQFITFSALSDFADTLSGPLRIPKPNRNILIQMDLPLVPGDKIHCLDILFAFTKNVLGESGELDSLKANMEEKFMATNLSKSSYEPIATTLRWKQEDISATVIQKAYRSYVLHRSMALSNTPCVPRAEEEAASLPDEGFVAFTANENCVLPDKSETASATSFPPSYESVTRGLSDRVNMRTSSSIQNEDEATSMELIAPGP
Assay: E-VIPR assay detecting and measuring Nav inhibition (HEK cells expressing truncated human Nav 1.8)
Type: cell-based
Conditions: in the Absence of Human Serum in the E-VIPR Assay; read-out: IC50
pIC50: −log10 of the molar value.

Below, 2 compounds whose answers are already recorded.
[[record]]
compound = "COc1c([C@H]2[C@H](C(=O)Nc3cc(C(N)=O)ccn3)O[C@@](C)(C(F)(F)F)[C@H]2C)ccc(F)c1F"
result = "7.00 to 8.00"

[[record]]
compound = "COc1c([C@H]2[C@H](C(=O)Nc3ccnc(C(N)=O)c3F)O[C@@](C)(C(F)(F)F)[C@H]2C)ccc(F)c1F"
result = "> 8.00"


-- ask Name the recorded pIC50 for COc1c([C@@H]2[C@@H](C(=O)Nc3ccnc(C(N)=O)c3)O[C@](C)(C(F)(F)F)[C@@H]2C)ccc(C(F)F)c1F (single isomer, unassigned) .
-- reply < 6.00

-- ask Name the recorded pIC50 for COc1cc(C(F)(F)F)ncc1[C@H]1[C@H](C(=O)Nc2ccnc(C(N)=O)c2)O[C@@](C)(C(F)(F)F)[C@H]1C (racemic) .
-- reply < 6.00

-- ask Name the recorded pIC50 for C[C@H]1[C@@H](c2ccc(F)c(F)c2OC2CCC2)[C@H](C(=O)Nc2ccnc(C(N)=O)c2)O[C@@]1(C)C(F)(F)F .
-- reply > 8.00

-- ask Name the recorded pIC50 for COc1c([C@H]2[C@H](C(=O)Nc3cc(C(N)=O)ncn3)O[C@@](C)(C(F)(F)F)[C@H]2C)ccc(F)c1F .
-- reply > 8.00
